Data provenance is the supplement of paper PMC11208160.

Provide the reported recombinant UMI read abundance (log10) of each item.
# TEST_DETAILS: recombinant UMI read abundance after kanamycin selection (control-corrected) (log10(CPM+1)); higher = more efficient recombination; extreme values may be limits of the assay; sequences stand for … in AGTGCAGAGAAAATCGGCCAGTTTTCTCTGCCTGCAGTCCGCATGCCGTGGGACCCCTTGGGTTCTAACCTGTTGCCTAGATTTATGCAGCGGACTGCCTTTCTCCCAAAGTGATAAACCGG…AGGTTGGTTTCACT; site = the 11-nt donor
// no unit string in output, number only

Request: For GTGGAGGCATGGACCGGTTTTCCCGGTAATCCGTATTTGGG (site GTGGAGGCTCG) , write its recombinant UMI read abundance (log10).
Result: 0.597

Request: For GCGAATGCATGGACCGGTTTTCCCGGTAATCCGTATTTGGA (site GCGAATGCTTC) , write its recombinant UMI read abundance (log10).
Result: 1.42

Request: For CCCAAAGCATGGACCGGTTTTCCCGGTAATCCGTATTTGAT (site CCTAAAGCTAT) , write its recombinant UMI read abundance (log10).
Result: 0.00406

Request: For CTGTGTGCATGGACCGGTTTTCCCGGTAATCCGTATTTGGT (site CTGTGTGCTAC) , write its recombinant UMI read abundance (log10).
Result: 1.44

Request: For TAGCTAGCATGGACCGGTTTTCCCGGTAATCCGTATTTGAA (site TAGCTAGCTTC) , write its recombinant UMI read abundance (log10).
Result: 0.504

Request: For TCCAATACATGGACCGGTTTTCCCGGTAATCCGTATTTGCC (site TCCAATTCTGG) , write its recombinant UMI read abundance (log10).
Result: 0

Request: For CCATTAGCATGGACCGGTTTTCCCGGTAATCCGTATTTGTG (site CCGTTAGCTCA) , write its recombinant UMI read abundance (log10).
Result: 0.0308

Request: For AGCGTTTCATGGACCGGTTTTCCCGGTAATCCGTATTTGAC (site AGCATTTCTGT) , write its recombinant UMI read abundance (log10).
Result: 0

Request: For TTATTTGCATGGACCGGTTTTCCCGGTAATCCGTATTTGTA (site TTATTTGCTTA) , write its recombinant UMI read abundance (log10).
Result: 0.103

Request: For TGATCCGCATGGACCGGTTTTCCCGGTAATCCGTATTTGCC (site TGATCCGCTGG) , write its recombinant UMI read abundance (log10).
Result: 1.55

Request: For CTAGGACCATGGACCGGTTTTCCCGGTAATCCGTATTTGGG (site CGAGGACCTCC) , write its recombinant UMI read abundance (log10).
Result: 0

Request: For ACCAGAACATGGACCGGTTTTCCCGGTAATCCGTATTTGAG (site ACAAGAACTCT) , write its recombinant UMI read abundance (log10).
Result: 0

Request: For TCGAAAACATGGACCGGTTTTCCCGGTAATCCGTATTTGTT (site TCGAAAACTAA) , write its recombinant UMI read abundance (log10).
Result: 0

Request: For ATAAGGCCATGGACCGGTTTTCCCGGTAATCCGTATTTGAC (site ATAAGGCCTGA) , write its recombinant UMI read abundance (log10).
Result: 0

Request: For CCGTTGACATGGACCGGTTTTCCCGGTAATCCGTATTTGCT (site CCGTTGACTAG) , write its recombinant UMI read abundance (log10).
Result: 1.05

Request: For CGGACATCATGGACCGGTTTTCCCGGTAATCCGTATTTGAT (site CGGACATCTAA) , write its recombinant UMI read abundance (log10).
Result: 0.359

Request: For AACCGTCCATGGACCGGTTTTCCCGGTAATCCGTATTTGGT (site AACCGTCCTAA) , write its recombinant UMI read abundance (log10).
Result: 0.0129

* * *

# TEST_DETAILS: recombinant UMI read abundance after kanamycin selection (control-corrected) (log10(CPM+1)); higher = more efficient recombination; extreme values may be limits of the assay; sequences stand for … in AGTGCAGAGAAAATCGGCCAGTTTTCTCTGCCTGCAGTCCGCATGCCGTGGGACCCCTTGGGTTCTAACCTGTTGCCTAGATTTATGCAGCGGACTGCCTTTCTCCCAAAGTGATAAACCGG…AGGTTGGTTTCACT; site = the 11-nt donor
ASSAY_ENDPOINT: recombinant UMI read abundance (log10)
// no unit string in output, number only

Request: For CGGCATCCATGGACCGGTTTTCCCGGTAATCCGTATTTGGT (site CGGCATCCTAC) , write its recombinant UMI read abundance (log10).
Result: 0.00636

Request: For AATCAATCATGGACCGGTTTTCCCGGTAATCCGTATTTGGC (site AATCAATCTGC) , write its recombinant UMI read abundance (log10).
Result: 2.07

Request: For GGCCCAACATGGACCGGTTTTCCCGGTAATCCGTATTTGTA (site GGGCCAACTTA) , write its recombinant UMI read abundance (log10).
Result: 0

Request: For TAAGACTCATGGACCGGTTTTCCCGGTAATCCGTATTTGTC (site TAAGACTCTGA) , write its recombinant UMI read abundance (log10).
Result: 2.64

* * *

# TEST_DETAILS: recombinant UMI read abundance after kanamycin selection (control-corrected) (log10(CPM+1)); higher = more efficient recombination; extreme values may be limits of the assay; sequences stand for … in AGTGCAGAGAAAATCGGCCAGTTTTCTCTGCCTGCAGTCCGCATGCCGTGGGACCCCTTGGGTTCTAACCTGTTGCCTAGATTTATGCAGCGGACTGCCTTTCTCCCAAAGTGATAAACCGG…AGGTTGGTTTCACT; site = the 11-nt donor
ASSAY_ENDPOINT: recombinant UMI read abundance (log10)
// no unit string in output, number only

Request: For AGTCCGCCATGGACCGGTTTTCCCGGTAATCCGTATTTGGG (site AGTCCGCCTCC) , write its recombinant UMI read abundance (log10).
Result: 0.015

Request: For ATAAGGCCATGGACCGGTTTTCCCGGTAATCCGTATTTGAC (site ACAAGGCCTGT) , write its recombinant UMI read abundance (log10).
Result: 0

Request: For AGGTTCCCATGGACCGGTTTTCCCGGTAATCCGTATTTGTT (site AGGTTCCCTAA) , write its recombinant UMI read abundance (log10).
Result: 0

Request: For CTCACTACATGGACCGGTTTTCCCGGTAATCCGTATTTGAG (site CTCCCTACTCT) , write its recombinant UMI read abundance (log10).
Result: 0

Request: For AATTAGGCATGGACCGGTTTTCCCGGTAATCCGTATTTGGA (site AATTAGGCTTC) , write its recombinant UMI read abundance (log10).
Result: 0.746

Request: For TTTGCTGCATGGACCGGTTTTCCCGGTAATCCGTATTTGCT (site TTTGCGGCTAG) , write its recombinant UMI read abundance (log10).
Result: 0

Request: For CCCTTCTCATGGACCGGTTTTCCCGGTAATCCGTATTTGCG (site CCCTTCTCTCA) , write its recombinant UMI read abundance (log10).
Result: 0.02

Request: For ACATCTCCATGGACCGGTTTTCCCGGTAATCCGTATTTGTG (site ACATCTACTCA) , write its recombinant UMI read abundance (log10).
Result: 0.0166

Request: For GGCCACTCATGGACCGGTTTTCCCGGTAATCCGTATTTGTT (site GGCCACTCTAA) , write its recombinant UMI read abundance (log10).
Result: 1.33

* * *

# TEST_DETAILS: recombinant barcode read abundance after kanamycin selection (control-corrected) (log10(CPM+1)); higher = more efficient recombination; sequences stand for … in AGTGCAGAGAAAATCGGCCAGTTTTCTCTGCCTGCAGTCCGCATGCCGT…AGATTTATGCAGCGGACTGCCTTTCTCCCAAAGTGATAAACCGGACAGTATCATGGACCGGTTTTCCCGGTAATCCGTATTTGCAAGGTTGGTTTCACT; site = the 11-nt target
Provide the reported recombinant barcode read abundance (log10) of each item.
// no unit string in output, number only

Request: For AATCGGCCTTGGGTTCTAACCTGTTGCGT (site AATAGGCCTAC) , write its recombinant barcode read abundance (log10).
Result: 0.375

Request: For AGCATCTCTTGGGTTCTAACCTGTTGCCG (site AGCATCTCTCG) , write its recombinant barcode read abundance (log10).
Result: 0.222

Request: For CCGTCAACTTGGGTTCTAACCTGTTGCCT (site GTACTCTCTCT) , write its recombinant barcode read abundance (log10).
Result: 0.0368

Request: For TCATCTCCTTGGGTTCTAACCTGTTGCCT (site ACATCTCCTAG) , write its recombinant barcode read abundance (log10).
Result: 0.188

Request: For TTCGTTGCTTGGGTTCTAACCTGTTGCCT (site CTCGTTGCTAG) , write its recombinant barcode read abundance (log10).
Result: 0.41

Request: For GTCAATCCTTGGGTTCTAACCTGTTGCGG (site GTCAATCCTCC) , write its recombinant barcode read abundance (log10).
Result: 1.25

Request: For AGGGTTCCTTGGGTTCTAACCTGTTGCTT (site TCATGGGCTCT) , write its recombinant barcode read abundance (log10).
Result: 0.0235

Request: For CAGAGATCTTGGGTTCTAACCTGTTGCTT (site CAGAGATCTAA) , write its recombinant barcode read abundance (log10).
Result: 1.33

Request: For TACTATACTTGGGTTCTAACCTGTTGCCT (site TACTATGCTAG) , write its recombinant barcode read abundance (log10).
Result: 0.0468

Request: For GTGTTGCCTTGGGTTCTAACCTGTTGCCT (site GCGTTGCCTAG) , write its recombinant barcode read abundance (log10).
Result: 0.392

Request: For CCGCACACTTGGGTTCTAACCTGTTGCCT (site CCGCACACTAG) , write its recombinant barcode read abundance (log10).
Result: 1.8

Request: For CGTAAGTCTTGGGTTCTAACCTGTTGCCT (site TATAAGTCTAG) , write its recombinant barcode read abundance (log10).
Result: 0.0991

Request: For AGGGTCGCTTGGGTTCTAACCTGTTGCCT (site CACAGTCCTTA) , write its recombinant barcode read abundance (log10).
Result: 0.344

Request: For ATGCCATCTTGGGTTCTAACCTGTTGCCT (site ATACCATCTAG) , write its recombinant barcode read abundance (log10).
Result: 0.434

Request: For TACGAGGCTTGGGTTCTAACCTGTTGCCT (site TACGTGGCTAG) , write its recombinant barcode read abundance (log10).
Result: 0.0666

Request: For GCACGTGCTTGGGTTCTAACCTGTTGCCT (site GCACGTGCTAG) , write its recombinant barcode read abundance (log10).
Result: 0.624

Request: For TAATCGACTTGGGTTCTAACCTGTTGCCT (site TAATCGTCTAG) , write its recombinant barcode read abundance (log10).
Result: 0.0431

Request: For CTCCGTACTTGGGTTCTAACCTGTTGCAT (site CTCCGAACTAA) , write its recombinant barcode read abundance (log10).
Result: 0.0945

Request: For CCTAAGCCTTGGGTTCTAACCTGTTGCTG (site CCTAAGCCTCA) , write its recombinant barcode read abundance (log10).
Result: 0.473

Request: For AGGAACCCTTGGGTTCTAACCTGTTGCTC (site AGGAACCCTAA) , write its recombinant barcode read abundance (log10).
Result: 0.19

Request: For AATAGGGCTTGGGTTCTAACCTGTTGCGG (site ACTAGGGCTCC) , write its recombinant barcode read abundance (log10).
Result: 0.294

Request: For AGCTGATCTTGGGTTCTAACCTGTTGCCT (site CGCTGATCTAG) , write its recombinant barcode read abundance (log10).
Result: 0.0237

Request: For TCGCCTACTTGGGTTCTAACCTGTTGCCT (site TCGCCTGCTAG) , write its recombinant barcode read abundance (log10).
Result: 0.396

Request: For TGTCAATCTTGGGTTCTAACCTGTTGCCT (site TGTCAACCTAG) , write its recombinant barcode read abundance (log10).
Result: 0.061

Request: For AGTTCTCCTTGGGTTCTAACCTGTTGCCT (site GGTTCTCCTAG) , write its recombinant barcode read abundance (log10).
Result: 0.207

Request: For TCGAAACCTTGGGTTCTAACCTGTTGCCT (site TCGAAGCCTAG) , write its recombinant barcode read abundance (log10).
Result: 0.132

Request: For GAGGGAGCTTGGGTTCTAACCTGTTGCAT (site GAGGGAGCTAT) , write its recombinant barcode read abundance (log10).
Result: 2.43

Request: For AGTTGCACTTGGGTTCTAACCTGTTGCCT (site AGTTCCACTAG) , write its recombinant barcode read abundance (log10).
Result: 0.11

Request: For CTACGTCCTTGGGTTCTAACCTGTTGCTG (site CTACGTCCTGA) , write its recombinant barcode read abundance (log10).
Result: 0.203

Request: For TGGCCCTCTTGGGTTCTAACCTGTTGCTA (site TGGCCCTCTGA) , write its recombinant barcode read abundance (log10).
Result: 0.0109

Request: For TTGCCAACTTGGGTTCTAACCTGTTGCCT (site TTGCCAACTAG) , write its recombinant barcode read abundance (log10).
Result: 0.332

Request: For AGAGTAACTTGGGTTCTAACCTGTTGCAC (site TCTCGTTCTTA) , write its recombinant barcode read abundance (log10).
Result: 0.063

Request: For GAGGTATCTTGGGTTCTAACCTGTTGCTT (site GAGGTATCTAA) , write its recombinant barcode read abundance (log10).
Result: 0.35

Request: For CGGCTACCTTGGGTTCTAACCTGTTGCCT (site CTGCTACCTAG) , write its recombinant barcode read abundance (log10).
Result: 0.429
